These entries and their values trace back to patent US11858910B2.

Test: Pharmacokinetic evaluation after intravenous or gavage administration to rats
Assay type: in vivo, SD rats
Conditions: SD, rat, in vivo, iv, 1 mg/kg
recorded_metric: clearance (mL/min/kg)

compound="CCN1CCC(=C(F)c2cccc(NC(=O)c3c(F)cc(F)cc3F)n2)CC1 [Example 19]" recorded_metric=clearance result_units=mL/min/kg endpoint_value=64.4

----------
Assay: Pharmacokinetic evaluation after intravenous or gavage administration to dogs
Format: in vivo, Beagle dogs
Details: beagle, dog, in vivo, po, 2.5 mg/kg
recorded_metric: half-life (h)

molecular_string=CCN1CCC(=C(F)c2cccc(NC(=O)c3c(F)cc(F)cc3F)n2)CC1 recorded_metric=half-life endpoint_value=1.96

----------
Assay: Pharmacokinetic evaluation after intravenous or gavage administration to rats
Type: in vivo, SD rats
Settings: SD, rat, in vivo, iv, 1 mg/kg
recorded_metric: AUC(0-t) (ng·h/mL)

compound="CCN1CCC(=C(F)c2cccc(NC(=O)c3c(F)cc(F)cc3F)n2)CC1 [Example 19]" result_units=ng·h/mL endpoint_value=240

----------
Assay: Pharmacokinetic evaluation after intravenous or gavage administration to dogs
Assay type: in vivo, Beagle dogs
Conditions: beagle, dog, in vivo, po, 2.5 mg/kg
recorded_metric: Tmax (h)

molecular_string=CCN1CCC(=C(F)c2cccc(NC(=O)c3c(F)cc(F)cc3F)n2)CC1 recorded_metric=Tmax endpoint_value=1

----------
Experiment: Pharmacokinetic evaluation after intravenous or gavage administration to rats
Type: in vivo, SD rats
Conditions: SD, rat, plasma, po; rats, i.g group, 5 mg/kg; read-out: AUClast
recorded_metric: AUC(0-t) (ng·h/mL)

molecular_string=CN1CCC(=C(F)c2cccc(NC(=O)c3c(F)cc(F)cc3F)n2)CC1 recorded_metric=AUC(0-t) endpoint_value=296

----------
Assay: Pharmacokinetic evaluation after intravenous or gavage administration to dogs
Type: in vivo, Beagle dogs
Conditions: beagle, dog, in vivo, po, 2.5 mg/kg
Protocol: The inventors had evaluated the pharmacokinetics of the compounds of the invention in rats and dogs. Wherein animal information was detailed in Table 1. The compound was administered to the animal subjects in the form of 5% DMSO+60% PEG400+35% Saline solution or 10% DMSO+10% Kolliphor HS15+30% PEG400+50% Saline solution. The animals were fasted for 12 hours before administration, but drinking water freely. […]
recorded_metric: AUC(0-t) (ng·h/mL)

molecular_string=CCN1CCC(=C(F)c2cccc(NC(=O)c3c(F)cc(F)cc3F)n2)CC1 endpoint_value=356

----------
Experiment: Pharmacokinetic evaluation after intravenous or gavage administration to dogs
Format: in vivo, Beagle dogs
Details: Beagle, dog, plasma, po; dogs, i.g group, 5 mg/kg; read-out: AUClast
recorded_metric: AUC(0-t)

molecular_string=CN1CCC(=C(F)c2cccc(NC(=O)c3c(F)cc(F)cc3F)n2)CC1 endpoint_value="691 ng·h/mL"

----------
Assay: Pharmacokinetic evaluation after intravenous or gavage administration to rats
Assay type: in vivo, SD rats
Conditions: SD, rat, in vivo, po, 5 mg/kg
recorded_metric: AUC(0-t) (ng·h/mL)

molecular_string=CCN1CCC(=C(F)c2cccc(NC(=O)c3c(F)cc(F)cc3F)n2)CC1 result_units=ng·h/mL endpoint_value=1260

----------
Assay: Pharmacokinetic evaluation after intravenous or gavage administration to dogs
Type: in vivo, Beagle dogs
Conditions: Beagle, dog, plasma, iv; dogs, i.v group, 1 mg/kg; read-out: Cmax
Experimental: The inventors had evaluated the pharmacokinetics of the compounds of the invention in rats and dogs. Wherein animal information was detailed in Table 1. The compound was administered to the animal subjects in the form of 5% DMSO+60% PEG400+35% Saline solution or 10% DMSO+10% Kolliphor HS15+30% PEG400+50% Saline solution. The animals were fasted for 12 hours before administration, but drinking water freely. […]
recorded_metric: Cmax (ng/mL)

molecular_string=CN1CCC(=C(F)c2cccc(NC(=O)c3c(F)cc(F)cc3F)n2)CC1 result_units=ng/mL endpoint_value=170

----------
Assay: Pharmacokinetic evaluation after intravenous or gavage administration to rats
Assay type: in vivo, SD rats
Settings: SD, rat, plasma, po; rats, i.g group, 5 mg/kg; read-out: Tmax
recorded_metric: Tmax (h)

compound="CN1CCC(=C(F)c2cccc(NC(=O)c3c(F)cc(F)cc3F)n2)CC1 [Example 12]" endpoint_value=2

----------
Assay: Pharmacokinetic evaluation after intravenous or gavage administration to rats
Type: in vivo, SD rats
Details: SD, rat, plasma, iv; rats, i.v group, 1 mg/kg; read-out: Tmax
recorded_metric: Tmax (min)

molecular_string=CN1CCC(=C(F)c2cccc(NC(=O)c3c(F)cc(F)cc3F)n2)CC1 result_units=min endpoint_value=4.98

----------
Experiment: Pharmacokinetic evaluation after intravenous or gavage administration to dogs
Format: in vivo, Beagle dogs
Details: Beagle, dog, plasma, iv; dogs, i.v group, 1 mg/kg; read-out: Cl
Method: The inventors had evaluated the pharmacokinetics of the compounds of the invention in rats and dogs. Wherein animal information was detailed in Table 1. The compound was administered to the animal subjects in the form of 5% DMSO+60% PEG400+35% Saline solution or 10% DMSO+10% Kolliphor HS15+30% PEG400+50% Saline solution. The animals were fasted for 12 hours before administration, but drinking water freely. […]
recorded_metric: clearance (mL/min/kg)

molecular_string=CN1CCC(=C(F)c2cccc(NC(=O)c3c(F)cc(F)cc3F)n2)CC1 endpoint_value=25.2

----------
Assay: Pharmacokinetic evaluation after intravenous or gavage administration to rats
Format: in vivo, SD rats
Conditions: SD, rat, in vivo, iv, 1 mg/kg
recorded_metric: Vd (L/kg)

molecule="CCN1CCC(=C(F)c2cccc(NC(=O)c3c(F)cc(F)cc3F)n2)CC1 [Example 19]" endpoint_value=11.4

----------
Assay: Pharmacokinetic evaluation after intravenous or gavage administration to dogs
Assay type: in vivo, Beagle dogs
Details: Beagle, dog, in vivo, iv, 0.5 mg/kg
recorded_metric: AUC(0-inf)

compound="CCN1CCC(=C(F)c2cccc(NC(=O)c3c(F)cc(F)cc3F)n2)CC1 [Example 19]" endpoint_value="634 ng·h/mL"

----------
Assay: Pharmacokinetic evaluation after intravenous or gavage administration to rats
Assay type: in vivo, SD rats
Details: SD, rat, plasma, po; rats, i.g group, 5 mg/kg; read-out: MRTINF
recorded_metric: MRT inf (h)

molecular_string=CN1CCC(=C(F)c2cccc(NC(=O)c3c(F)cc(F)cc3F)n2)CC1 recorded_metric="MRT inf" endpoint_value=4.05

----------
Assay: Pharmacokinetic evaluation after intravenous or gavage administration to dogs
Assay type: in vivo, Beagle dogs
Details: Beagle, dog, plasma, iv; dogs, i.v group, 1 mg/kg; read-out: Tmax
recorded_metric: Tmax (min)

compound="CN1CCC(=C(F)c2cccc(NC(=O)c3c(F)cc(F)cc3F)n2)CC1 [Example 12]" recorded_metric=Tmax result_units=min endpoint_value=15

----------
Experiment: Pharmacokinetic evaluation after intravenous or gavage administration to dogs
Format: in vivo, Beagle dogs
Conditions: beagle, dog, in vivo, po, 2.5 mg/kg
recorded_metric: Cmax (ng/mL)

molecular_string=CCN1CCC(=C(F)c2cccc(NC(=O)c3c(F)cc(F)cc3F)n2)CC1 endpoint_value=126

----------
Test: Pharmacokinetic evaluation after intravenous or gavage administration to rats
Type: in vivo, SD rats
Conditions: SD, rat, plasma, iv; rats, i.v group, 1 mg/kg; read-out: T1/2 (converted)
recorded_metric: half-life (h)

molecular_string=CN1CCC(=C(F)c2cccc(NC(=O)c3c(F)cc(F)cc3F)n2)CC1 recorded_metric=half-life endpoint_value=1.38

----------
Experiment: Pharmacokinetic evaluation after intravenous or gavage administration to rats
Type: in vivo, SD rats
Conditions: SD, rat, in vivo, iv, 1 mg/kg
recorded_metric: half-life

molecular_string=CCN1CCC(=C(F)c2cccc(NC(=O)c3c(F)cc(F)cc3F)n2)CC1 endpoint_value="126 min"

----------
Experiment: Pharmacokinetic evaluation after intravenous or gavage administration to rats
Type: in vivo, SD rats
Conditions: SD, rat, plasma, po; rats, i.g group, 5 mg/kg; read-out: T1/2 (converted)
recorded_metric: half-life (h)

molecular_string=CN1CCC(=C(F)c2cccc(NC(=O)c3c(F)cc(F)cc3F)n2)CC1 endpoint_value=2.31

----------
Experiment: Pharmacokinetic evaluation after intravenous or gavage administration to dogs
Assay type: in vivo, Beagle dogs
Settings: Beagle, dog, in vivo, iv, 0.5 mg/kg
recorded_metric: Vd (L/kg)

compound="CCN1CCC(=C(F)c2cccc(NC(=O)c3c(F)cc(F)cc3F)n2)CC1 [Example 19]" endpoint_value=1.1

----------
Assay: Pharmacokinetic evaluation after intravenous or gavage administration to dogs
Format: in vivo, Beagle dogs
Details: beagle, dog, in vivo, po, 2.5 mg/kg
Procedure: The inventors had evaluated the pharmacokinetics of the compounds of the invention in rats and dogs. Wherein animal information was detailed in Table 1. The compound was administered to the animal subjects in the form of 5% DMSO+60% PEG400+35% Saline solution or 10% DMSO+10% Kolliphor HS15+30% PEG400+50% Saline solution. The animals were fasted for 12 hours before administration, but drinking water freely. […]
recorded_metric: MRT inf (h)

molecular_string=CCN1CCC(=C(F)c2cccc(NC(=O)c3c(F)cc(F)cc3F)n2)CC1 recorded_metric="MRT inf" endpoint_value=3.26
